For each of the compounds below, state its Ki.
# target.or.system: Neuronal acetylcholine receptor; alpha3/beta4 (Homo sapiens, UniProt P30926+P32297)
# Sequence (P30926 whole entry): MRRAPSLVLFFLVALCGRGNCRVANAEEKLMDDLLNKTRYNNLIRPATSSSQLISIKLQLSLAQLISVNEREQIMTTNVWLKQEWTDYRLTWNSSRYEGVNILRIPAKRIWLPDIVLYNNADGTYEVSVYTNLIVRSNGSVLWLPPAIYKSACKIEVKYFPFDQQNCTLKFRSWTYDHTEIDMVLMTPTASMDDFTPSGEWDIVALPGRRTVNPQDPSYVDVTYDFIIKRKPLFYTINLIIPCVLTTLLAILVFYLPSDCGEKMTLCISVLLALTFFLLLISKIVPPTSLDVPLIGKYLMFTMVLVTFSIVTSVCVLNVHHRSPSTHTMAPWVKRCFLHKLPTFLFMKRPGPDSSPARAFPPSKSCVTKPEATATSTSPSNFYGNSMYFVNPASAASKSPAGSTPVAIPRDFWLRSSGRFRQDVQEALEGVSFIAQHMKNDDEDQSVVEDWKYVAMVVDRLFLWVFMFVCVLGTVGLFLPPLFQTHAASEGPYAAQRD
# Sequence (P32297 whole entry): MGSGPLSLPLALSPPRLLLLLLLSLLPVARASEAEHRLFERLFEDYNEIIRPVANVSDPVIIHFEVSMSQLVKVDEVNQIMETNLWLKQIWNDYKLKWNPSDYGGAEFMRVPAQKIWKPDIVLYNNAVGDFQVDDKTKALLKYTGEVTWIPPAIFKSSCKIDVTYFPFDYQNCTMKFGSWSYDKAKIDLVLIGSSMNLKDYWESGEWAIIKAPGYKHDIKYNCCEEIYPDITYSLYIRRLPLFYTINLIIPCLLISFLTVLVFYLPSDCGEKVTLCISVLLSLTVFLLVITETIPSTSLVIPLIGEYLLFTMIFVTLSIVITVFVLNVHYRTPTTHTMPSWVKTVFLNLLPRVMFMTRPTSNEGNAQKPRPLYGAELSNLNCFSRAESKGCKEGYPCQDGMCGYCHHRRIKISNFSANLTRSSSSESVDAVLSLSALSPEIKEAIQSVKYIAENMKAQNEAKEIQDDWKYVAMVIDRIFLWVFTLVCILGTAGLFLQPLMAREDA
# protocol.notes: Displacement of [3H]epibatidine from human alpha3beta4 nAChR in IMR32 cells
# Type: cell-based, IMR-32

compound	reported.result
O=c1cccc2n1CC1CNCC21 (racemic) [CYFUSINE]	> 0.5 µM

Please go through the list and note Ki for each compound.
1. O=c1cccc2n1CC13CNCC21C3 (racemic) [CYCLOPROPYLCYFUSINE]
2. O=c1cccc2n1C[C@@H]1CNC[C@H]2C1 [CYTISINICLINE]

["> 0.5 µM", "1.56 µM"]

###

# target.or.system: Neuronal acetylcholine receptor subunit alpha-7 (Rattus norvegicus)
# Sequence (Q05941 whole entry): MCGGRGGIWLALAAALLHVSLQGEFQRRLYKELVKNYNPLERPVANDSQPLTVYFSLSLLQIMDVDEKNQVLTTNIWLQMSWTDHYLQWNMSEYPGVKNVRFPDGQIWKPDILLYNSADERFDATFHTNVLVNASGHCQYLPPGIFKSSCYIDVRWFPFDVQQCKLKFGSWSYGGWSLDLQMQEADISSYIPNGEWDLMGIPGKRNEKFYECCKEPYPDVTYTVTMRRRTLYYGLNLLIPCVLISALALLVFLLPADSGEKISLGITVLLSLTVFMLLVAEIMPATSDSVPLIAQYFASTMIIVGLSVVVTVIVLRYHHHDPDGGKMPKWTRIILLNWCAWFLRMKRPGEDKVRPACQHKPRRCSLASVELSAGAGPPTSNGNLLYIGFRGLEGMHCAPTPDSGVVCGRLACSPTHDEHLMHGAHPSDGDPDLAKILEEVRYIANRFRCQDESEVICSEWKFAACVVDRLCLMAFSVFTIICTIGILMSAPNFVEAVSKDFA
# protocol.notes: Displacement of [125I]alpha-bungarotoxin from rat alpha7 nAChR in GH4C1 cells
pKi: −log10 of the molar value.
measured.endpoint: pKi

molecule	reported.result
O=c1cccc2n1CC1CNCC21 (racemic)	< 6.30
O=c1cccc2n1CC13CNCC21C3 (racemic)	< 6.30

Consider now this further molecule.
Entry `O=c1cccc2n1C[C@@H]1CNC[C@H]2C1` needs its pKi filled in; supply it. 5.24
